# TEST NAME: Relative activity against human Phosphodiesterase type 4 (PDE4) and rat rolipram binding protein (RBA)
# Set-up: reference not given here
MEASURED PARAMETER: Ratio

{"columns": ["CHEMICAL STRING", "MEASURED PARAMETER", "REPORTED VALUE"],
 "data": [
  ["COc1ccc(C(=O)Nc2c(Cl)cc(C#N)cc2Cl)c2cc(C(C)=O)oc12", "Ratio", 0.37],
  ["COc1ccc(C(=O)Nc2cccnc2Cl)c2cc(C(C)=O)oc12", "Ratio", 4.4],
  ["COc1ccc(C(=O)Nc2ncncc2Cl)c2cc(C(C)=O)oc12", "Ratio", 2.75],
  ["COc1ccc(C(=O)Nc2ccncc2)c2cc(C(C)=O)oc12", "Ratio", 0.48],
  ["COc1ccc(C(=O)Nc2ccncc2Cl)c2cc(C(C)=O)oc12", "Ratio", 0.197],
  ["COc1ccc(C(=O)Nc2ccccc2Cl)c2cc(C(C)=O)oc12", "Ratio", 0.21],
  ["COc1ccc(C(=O)Nc2c(Cl)cncc2Cl)c2cc(C(=O)c3ccncc3)oc12", "Ratio", 0.3],
  ["COc1ccc(C(=O)Nc2ncccc2C)c2cc(C(C)=O)oc12", "Ratio", 0.24]
]}
